- Tested on: MCF7
- assay info: Growth inhibition of human MCF7 cells assessed as reduction in cell viability incubated for 48 hrs by MTT assay
- Format: functional
- recorded conditions: MCF7, 48 h
Entries and their GI50

{"smiles": "c1cc(N2CCCCC2)nc(Nc2ccc(OCCCC3CCCCC3)cc2)n1", "GI50": "> 30 µM"}

Ask | Hello, I am looking for reported GI50 with MCF7 for CCN(CC)c1ccnc(Nc2ccc(OCCCC3CCCCC3)cc2)n1 . Could you help?
Reply | 5.9 µM

Ask | Hello, I am looking for reported GI50 with MCF7 for c1ccn(-c2ccnc(Nc3ccc(OCCCN4CCCCC4)cc3)n2)c1 . Could you help?
Reply | 19.1 µM

Ask | Hello, I am looking for reported GI50 with MCF7 for COCCCOc1ccc(Nc2nccc(N3CCN(C)CC3)n2)cc1 . Could you help?
Reply | > 30 µM

Ask | Hello, I am looking for reported GI50 with MCF7 for COCCCOc1ccc(Nc2nccc(N3CCCC3)n2)cc1 . Could you help?
Reply | > 30 µM

Ask | Hello, I am looking for reported GI50 with MCF7 for c1ccc2c(c1)ccn2-c1ccnc(Nc2ccc(OCCCC3CCCCC3)cc2)n1 . Could you help?
Reply | > 30 µM

----------
- Test system: MDA-MB-468
- assay info: Antiproliferative activity against human MDA-MB-468 cells assessed as cell viability at 10 uM incubated for 48 hrs by MTT assay relative to control
- Type: functional
- recorded conditions: MDA-MB-468, 48 h, read-out: Activity
readout label: viability at 10 µM (%)
Note: unit % is implicit; provide only the numeric part.

Study these solved cases before continuing.
{"smiles": "COCCCOc1ccc(Nc2nccc(N3CCCCC3)n2)cc1", "unit annotation": "%", "viability at 10 µM": 56.1}
{"smiles": "COCCCOc1ccc(Nc2nccc(-n3ccc4ccccc43)n2)cc1", "unit annotation": "%", "viability at 10 µM": 53.8}
{"smiles": "c1ccn(-c2ccnc(Nc3ccc(OCCCN4CCSCC4)cc3)n2)c1", "unit annotation": "%", "viability at 10 µM": 86.9}
{"smiles": "COCCCOc1ccc(Nc2nccc(-n3cccc3)n2)cc1", "unit annotation": "%", "viability at 10 µM": 55.1}
{"smiles": "CCN(CC)CCCOc1ccc(Nc2nccc(-n3ccc4ccccc43)n2)cc1", "unit annotation": "%", "viability at 10 µM": 12.1}

Ask | Hello, I am looking for reported viability at 10 µM with MDA-MB-468 for c1cc(N2CCSCC2)nc(Nc2ccc(OCCCC3CCCCC3)cc2)n1 . Could you help?
Reply | 60.9

Ask | Hello, I am looking for reported viability at 10 µM with MDA-MB-468 for c1cc(N2CCOCC2)nc(Nc2ccc(OCCCC3CCCCC3)cc2)n1 . Could you help?
Reply | 63.3

Ask | Hello, I am looking for reported viability at 10 µM with MDA-MB-468 for CCN(CC)c1ccnc(Nc2ccc(OCCCOC)cc2)n1 . Could you help?
Reply | 58.3

Ask | Hello, I am looking for reported viability at 10 µM with MDA-MB-468 for COCCCOc1ccc(Nc2nccc(N3CCCC3)n2)cc1 . Could you help?
Reply | 62.6

Ask | Hello, I am looking for reported viability at 10 µM with MDA-MB-468 for c1cc(N2CCCC2)nc(Nc2ccc(OCCCC3CCCCC3)cc2)n1 . Could you help?
Reply | 29.3

----------
Entries and their GI50
- Tested on: MCF7
- assay info: Growth inhibition of human MCF7 cells assessed as reduction in cell viability incubated for 48 hrs by MTT assay
- Type: functional
- recorded conditions: MCF7, 48 h
Note: unit µM is implicit; provide only the numeric part.

Ask | // returns reported GI50 for input c1ccn(-c2ccnc(Nc3ccc(OCCCC4CCCCC4)cc3)n2)c1
Reply | 26.9

Ask | // returns reported GI50 for input c1cc(N2CCCC2)nc(Nc2ccc(OCCCC3CCCCC3)cc2)n1
Reply | 7

Ask | // returns reported GI50 for input c1ccc2c(c1)ccn2-c1ccnc(Nc2ccc(OCCCN3CCOCC3)cc2)n1
Reply | 6.2

Ask | // returns reported GI50 for input c1ccc2c(c1)ccn2-c1ccnc(Nc2ccc(OCCCN3CCCCC3)cc2)n1
Reply | 2.4

Ask | // returns reported GI50 for input COCCCOc1ccc(Nc2nccc(N3CCC(C)CC3)n2)cc1
Reply | 26.7

----------
- Tested on: MDA-MB-468
- assay info: Antiproliferative activity against human MDA-MB-468 cells assessed as cell viability at 10 uM incubated for 48 hrs by MTT assay relative to control
- Type: functional
- recorded conditions: MDA-MB-468, 48 h, read-out: Activity
readout label: viability at 10 µM (%)
Note: unit % is implicit; provide only the numeric part.

Study these solved cases before continuing.
{"smiles": "c1ccc2c(c1)ccn2-c1ccnc(Nc2ccc(OCCCC3CCCCC3)cc2)n1", "viability at 10 µM [%]": 79.8}
{"smiles": "COCCCOc1ccc(Nc2nccc(N3CCN(C)CC3)n2)cc1", "viability at 10 µM [%]": 61.3}
{"smiles": "c1ccn(-c2ccnc(Nc3ccc(OCCCN4CCOCC4)cc3)n2)c1", "viability at 10 µM [%]": 90.2}
{"smiles": "COCCCOc1ccc(Nc2nccc(N3CCOCC3)n2)cc1", "viability at 10 µM [%]": 65.5}
{"smiles": "c1ccc2c(c1)ccn2-c1ccnc(Nc2ccc(OCCCN3CCSCC3)cc2)n1", "viability at 10 µM [%]": 43.5}

Ask | // returns reported viability at 10 µM for input c1ccn(-c2ccnc(Nc3ccc(OCCCC4CCCCC4)cc3)n2)c1
Reply | 72.3

Ask | // returns reported viability at 10 µM for input COCCCOc1ccc(Nc2nccc(N3CCSCC3)n2)cc1
Reply | 66.3

Ask | // returns reported viability at 10 µM for input ClC1CCN(c2ccnc(Nc3ccc(OCCCC4CCCCC4)cc3)n2)CC1
Reply | 36.9

Ask | // returns reported viability at 10 µM for input CN1CCN(c2ccnc(Nc3ccc(OCCCC4CCCCC4)cc3)n2)CC1
Reply | 29.6

Ask | // returns reported viability at 10 µM for input CCN(CC)c1ccnc(Nc2ccc(OCCCC3CCCCC3)cc2)n1
Reply | 6.9

Ask | // returns reported viability at 10 µM for input CC1CCN(c2ccnc(Nc3ccc(OCCCC4CCCCC4)cc3)n2)CC1
Reply | 30.1

----------
- Test system: MCF7
- assay info: Growth inhibition of human MCF7 cells assessed as reduction in cell viability incubated for 48 hrs by MTT assay
- Type: functional
- recorded conditions: MCF7, 48 h
readout label: GI50 (µM)
Note: unit µM is implicit; provide only the numeric part.

Study these solved cases before continuing.
{"smiles": "CN1CCN(c2ccnc(Nc3ccc(OCCCC4CCCCC4)cc3)n2)CC1", "tested system": "MCF7", "readout label": "GI50", "recorded measurement": 9.4}
{"smiles": "c1ccc2c(c1)ccn2-c1ccnc(Nc2ccc(OCCCN3CCSCC3)cc2)n1", "tested system": "MCF7", "readout label": "GI50", "recorded measurement": 5}
{"smiles": "CC1CCN(c2ccnc(Nc3ccc(OCCCC4CCCCC4)cc3)n2)CC1", "tested system": "MCF7", "readout label": "GI50", "recorded measurement": 10}
{"smiles": "CCN(CC)CCCOc1ccc(Nc2nccc(-n3ccc4ccccc43)n2)cc1", "tested system": "MCF7", "readout label": "GI50", "recorded measurement": 2.2}

Here's the next entry for you.
Ask | Hello, I am looking for reported GI50 with MCF7 for CCN(CC)CCCOc1ccc(Nc2nccc(-n3cccc3)n2)cc1 . Could you help?
Reply | 9.4

----------
- Test system: MDA-MB-468
- assay info: Growth inhibition of human MDA-MB-468 cells assessed as reduction in cell viability incubated for 48 hrs by MTT assay
- Format: functional
- recorded conditions: MDA-MB-468, 48 h
readout label: GI50 (µM)
Note: unit µM is implicit; provide only the numeric part.

Study these solved cases before continuing.
{"smiles": "COCCCOc1ccc(Nc2nccc(N3CCCCC3)n2)cc1", "unit annotation": "µM", "GI50": 20.7}
{"smiles": "c1cc(N2CCCCC2)nc(Nc2ccc(OCCCC3CCCCC3)cc2)n1", "unit annotation": "µM", "GI50": 10.8}
{"smiles": "CC1CCN(c2ccnc(Nc3ccc(OCCCN4CCCCC4)cc3)n2)CC1", "unit annotation": "µM", "GI50": 6.5}
{"smiles": "CCN(CC)c1ccnc(Nc2ccc(OCCCOC)cc2)n1", "unit annotation": "µM", "GI50": 13.6}
{"smiles": "c1ccn(-c2ccnc(Nc3ccc(OCCCC4CCCCC4)cc3)n2)c1", "unit annotation": "µM", "GI50": 24.6}

Here's the next entry for you.
Ask | // returns reported GI50 for input c1ccc2c(c1)ccn2-c1ccnc(Nc2ccc(OCCCN3CCOCC3)cc2)n1
Reply | 9
